# RUN_DESCRIPTION: protease stability score; higher = more stable; yeast display proteolysis, trypsin and chymotrypsin;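 also: relative to predicted unfolded state with 0 unfolded-like and 1 meaning tenfold more protease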
Consider the following sequences; for each one, report its protease stability score.
Answer with a bare number; do not write a unit.

Which protease stability score value belongs to "SELEEEMEKWARDFLRLWFTGDEETTERLFDPHARMDVNGVQNHGWEMMSRQLTHYINHIRIRDLEVETISQQGDKIYVHGQENVEIGDKHLRYHTHIELVIVNGRVQEVRIEVK" ?
0.993

Which protease stability score value belongs to "SEDKELAERLYHLLLRTLITGDEKQLIDNMDPDARVHVGDKHRHGMEWMNRYLHELRIRDQDDKDIRLQGNKVHVDGHVRGNINGQEIDYRFHIELITINGVVHMINIQIR" ?
0.945

Which protease stability score value belongs to "SEEERATEYVLSMLLHLLRTGDEDALFEMADPRYRFIYGEKEKVGRHVIHEFITHLRIDDFRLRRLEIQGDKIITDGEMYGTINGQHETRRVILIMRKINGRWFLESIEIR" ?
1.7

Which protease stability score value belongs to "SEDRKFIKEMFEETFRRWETGDEDHIRRYVDPHTKLRILIDGREHTHHGREEFTKMMIDLSEQLGIKHLHIENLHIQGDKAELRGREEVGDKDEHVTIIAHKVNGQWTIETLHIEVR" ?
-0.376

Which protease stability score value belongs to "DEEEKHLKKLKDMEWKLFETGNEDEIAKLADPNTRTEIDFNGVRIILHGRHVFAKYLTRWWRSLGIDHIRLEEMDIQGDYVTIRGKEDYNGKEKRVTIIIVIVDGRLKEIHVDVR" ?
0.967

Which protease stability score value belongs to "HEDEHQAEHLLEAVFHIFLTGDWRSLHELVDPNVRFDVNGRRTHGREDLIRFSRELRIHDVRFHRVKLDVYDGRVEMRIDGRIDGEINGRRTDVRSIIEIEFIKFNGQWRVESISLNFH" ?
1.44

Which protease stability score value belongs to "DELREHVEEVMRWFFERIKTGDEENFHKMADPDARLQVGDKNVHGRENVLKEWRRHREEIRIEDMKIRELHVIGNYAYLDIHVDITYNGKRKETRVELRVVVIDGRIEHIEIRIN" ?
0.439

Which protease stability score value belongs to "DDLEQESHKVFEQYVRDWRTGDEHNVERLADPHVRVLYNGRHSHGWKEFLEHFSRDAQQADHTEFRIDDTDHQGDKMVLNETVILRYGDKEIQIEVELIYRKIDGRWYITEVRFR" ?
0.204

Which protease stability score value belongs to "DEDEESATKFTRELIHHTRTGDEESLKELADPNVRIDFNGVEIHGMEWWLKLHVHLGAKIILRLKDIETIGDKVHIHGEREIRVNGKNIRTKIRILVEKVDGRWVLKHEELG" ?
1.21

Which protease stability score value belongs to "DELEHMVRLLLKIWIHALITGDEELMMDQADPNVRLIIGDKIHHGMETFEEWVHQFKNLTVKHIVLRHTHYQGNKARIVGHLDIEINGRHHRLQTEIVIHKFNGKWYISDLRFD" ?
0.646

Which protease stability score value belongs to "DEMDELAERIYETWVKRHLTGDEKVIEELMDPNVRIDIVVGDKKIHLIGRETASSFARRWFDHLRIDDMRMHSVETINGQIHSEVEVHRRIGDKERFILTRIEMHVINGKIHSIRLEIE" ?
1.1

Which protease stability score value belongs to "DEEALKKLQDILRRNDQDKMNKMIDKDVRVVIGEHEYRGKRNVQEALKREYEHADRFEVKHIEDHGDKLHVDVVLRVDGRDIRFVVVIDVHNGNIRNVKVDFTDEDTQRDFQRQLD" ?
1.02

Which protease stability score value belongs to "DEEEHHMKLAYDILLQTLRTGDEDLMERLIDPNVRFELLIGDFILHIHGWELVVEWDIRIARQWRIEHVHIKRYEVFNGRSRVNVKIDGVVNGRRYRFDIIELSLVIDGRVHHRSQEII" ?
0.835

Which protease stability score value belongs to "DEEKKEILEIARRVIESLLTGDWEEDHELADPNVLYIQGDKEVHGMETTWRIIFELRHQIKGMTEHIHIRRVEIVNGVAHLDTELRLNVNGREVTHETHVHIFLYNGRVKRIEVRIK" ?
1.48

Which protease stability score value belongs to "SEEHEIIERMMRLFLNYYFTGDEESIQKNADPDVKLNINGRDIHGRERIAEHLFDEIKHLRWHHLHIHSFIVQGEKARVDTRFDGEVDGVRTIFETEIILVVVNGRMKSIEVHRR" ?
1.28

Which protease stability score value belongs to "SEREKIAELAYRLLKRSSDTGDPHLMQWLMDPNTRIEQGEFEHHGRDAISFWIKRFDHNRHIDVKRIEVQGNKVIMEFDVELDVNGVEIHTELVLISLKVNGQWRMESIKIE" ?
0.575

Which protease stability score value belongs to "DEKERLADEILEDIRKSVHTGDWDEYLRLLDPNVRTVINGKTVHGREEIKELMERLGIDHHHLRVDHWEIIDGKVHVEIEVTLQIGDKHFSRSSHILIMKFNGQWIVHTFRLH" ?
1.73

Which protease stability score value belongs to "DEDKHLSQLAIELLHRFLWTGDEHDLEHLMDPNAKLEQGDKTLHGRELVLEFFDHLVEEAGITKVDHKLRRIETYGNKVNIHGDLHVNGRTIRIEIIAVKINGKWVVRSVRIK" ?
1.21
